# assay-target: UniProtKB P31652
# Sequence (P31652 whole entry): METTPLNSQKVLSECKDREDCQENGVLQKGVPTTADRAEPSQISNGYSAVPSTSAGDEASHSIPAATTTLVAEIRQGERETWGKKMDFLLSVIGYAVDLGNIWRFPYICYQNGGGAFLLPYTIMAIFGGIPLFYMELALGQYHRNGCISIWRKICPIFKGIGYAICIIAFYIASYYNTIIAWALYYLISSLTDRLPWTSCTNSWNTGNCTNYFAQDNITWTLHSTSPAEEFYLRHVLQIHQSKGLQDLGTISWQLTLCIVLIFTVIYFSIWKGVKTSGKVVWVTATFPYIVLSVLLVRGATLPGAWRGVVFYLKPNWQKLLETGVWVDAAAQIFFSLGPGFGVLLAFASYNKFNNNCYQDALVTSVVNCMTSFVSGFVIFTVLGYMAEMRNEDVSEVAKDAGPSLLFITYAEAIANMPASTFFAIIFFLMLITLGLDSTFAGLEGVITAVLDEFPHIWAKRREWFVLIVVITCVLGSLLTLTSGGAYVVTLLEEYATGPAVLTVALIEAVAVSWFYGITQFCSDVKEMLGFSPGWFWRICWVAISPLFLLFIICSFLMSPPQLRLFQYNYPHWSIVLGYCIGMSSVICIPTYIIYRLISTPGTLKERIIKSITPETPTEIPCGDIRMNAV
# experimental-details: Ratio of Ki value towards Serotonin transporter to that of dopamine transporter
observable: pKi
One number for each entry, as −log10 of the molar value.

Input line: What pKi appears in the records for this molecule with UniProtKB P31652? CC(C)OC(=O)C1C(c2ccc(I)cc2)CC2CCC1N2C (stereo unspecified)
Output line: 7.90

###

# assay-target: Monoamine transporters; Norepininephrine & dopamine (Rattus norvegicus) (UniProt P23977+Q9WTR4)
# experimental-details: Ratio of IC50 value against NE to that of DA transporters
# Assay type: protein assay
Is Ratio at least 300? Then 1. If not, -1.

Illustrative cases are given below, each with its answer.
{"compound": "CN1C2CCC1C(C(=O)N1CCC1)C(c1ccc(Cl)cc1)C2 (stereo not given)", "group": -1}
{"compound": "CN1C2CCC1C(C(=O)N1CCCO1)C(c1ccc(I)cc1)C2 (stereo not given)", "group": 1}
{"compound": "CNC(=O)C1C(OC(=O)c2ccccc2)CC2CCC1N2C (stereo not given)", "group": -1}
{"compound": "CN1C2CCC1C(C(=O)Oc1ccc(Cl)cc1)C(c1ccc(Cl)cc1)C2 (stereo not given)", "group": -1}

Input line: Does the reported Ratio for CN1C2CCC1C(C(=O)N1CCOCC1)C(c1ccc(Cl)cc1)C2 (stereo not given) fall at or above the 300 mark?
Output line: 1

Input line: Does the reported Ratio for CN1C2CCC1C(C(=O)N1CCCO1)C(c1ccc(Cl)cc1)C2 (stereo not given) fall at or above the 300 mark?
Output line: 1

Input line: Does the reported Ratio for CON(C)C(=O)C1C(c2ccc(C)cc2)CC2CCC1N2C (stereo not given) fall at or above the 300 mark?
Output line: -1

Input line: Does the reported Ratio for CN1C2CCC1C(C(=O)OC1CC1)C(c1ccc(I)cc1)C2 (stereo not given) fall at or above the 300 mark?
Output line: -1

Input line: Does the reported Ratio for Cc1ccc(C2CC3CCC(C2C(=O)Oc2ccccc2C)N3C)cc1 (stereo not given) fall at or above the 300 mark?
Output line: 1

Input line: Does the reported Ratio for Cc1ccc(OC(=O)C2C(c3ccc(Cl)cc3)CC3CCC2N3C)cc1 (stereo not given) fall at or above the 300 mark?
Output line: -1

###

# assay-target: Monoamine transporters; serotonin & dopamine (Rattus norvegicus) (UniProt P31652+P23977)
# Sequence (P23977 whole entry, looked up): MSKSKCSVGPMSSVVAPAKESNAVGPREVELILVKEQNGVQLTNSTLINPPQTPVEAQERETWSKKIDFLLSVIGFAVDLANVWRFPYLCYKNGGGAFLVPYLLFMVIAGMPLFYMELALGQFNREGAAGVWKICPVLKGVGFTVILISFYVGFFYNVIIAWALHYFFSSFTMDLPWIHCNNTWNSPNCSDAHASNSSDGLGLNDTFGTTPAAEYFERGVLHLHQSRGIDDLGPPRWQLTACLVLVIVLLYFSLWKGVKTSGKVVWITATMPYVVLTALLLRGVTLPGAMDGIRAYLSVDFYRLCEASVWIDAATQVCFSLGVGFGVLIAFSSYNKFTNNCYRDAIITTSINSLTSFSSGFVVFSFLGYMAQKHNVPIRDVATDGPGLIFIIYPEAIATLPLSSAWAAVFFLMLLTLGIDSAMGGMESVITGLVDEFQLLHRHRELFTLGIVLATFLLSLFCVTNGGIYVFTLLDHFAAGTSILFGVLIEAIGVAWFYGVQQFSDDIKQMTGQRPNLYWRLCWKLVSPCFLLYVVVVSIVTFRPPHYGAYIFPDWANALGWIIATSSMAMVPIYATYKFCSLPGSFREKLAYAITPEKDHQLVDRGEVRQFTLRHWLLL
# Sequence (P31652 whole entry, looked up): as the sequence (P31652 whole entry) above
# experimental-details: Ratio of IC50 value against 5-HT to that of DA transporters
# Assay type: protein assay
observable: Ratio
Answers are plain numbers.

Worked examples follow.
{"compound": "Cc1ccc(C2CC3CCC(C2C(N)=O)N3C)cc1 (centres undefined)", "value-reported": 152}
{"compound": "CN1C2CCC1C(C(N)=O)C(c1ccc(Cl)cc1)C2 (centres undefined)", "value-reported": 141}
{"compound": "CN1C2CCC1C(C(=O)OC/C=C/c1ccccc1)C(OC(=O)c1ccccc1)C2 (centres undefined)", "value-reported": 1}
{"compound": "Cc1ccc(C2CC3CCC(C2C(=O)OC(C)C)N3C)cc1 (centres undefined)", "value-reported": 944}
{"compound": "CN1C2CCC1C(C(=O)OC1CC1)C(c1ccc(I)cc1)C2 (centres undefined)", "value-reported": 25}
{"compound": "CC(C)OC(=O)C1C(c2ccc(I)cc2)CC2CCC1N2C (centres undefined)", "value-reported": 155}

Dear reader, for each entry below, please note its Ratio.
1. CN1C2CCC1C(C(N)=O)C(OC(=O)c1ccccc1)C2 (centres undefined)
2. CNC(=O)C1C(OC(=O)c2ccccc2)CC2CCC1N2C (centres undefined)
3. CN1C2CCC1C(C(=O)NCO)C(c1ccc(Cl)cc1)C2 (centres undefined)

Output line:
[18, 18, 48]

###

# assay-target: Sodium-dependent dopamine transporter (Rattus norvegicus)
# Sequence (P23977 whole entry): as the sequence (P23977 whole entry, looked up) above
pIC50: −log10 of the molar value.
Is pIC50 at least 7? Then met. If not, not met.

{"compound": "CCC(CC)OC(=O)C1C(c2ccc(C)cc2)CC2CCC1N2C (centres undefined)", "group": "met"}
{"compound": "Cc1ccc(C2CC3CCC(C2C(N)=O)N3C)cc1 (centres undefined)", "group": "met"}

Input line: Does the reported pIC50 for CN1C2CCC1C(C(N)=O)C(OC(=O)c1ccccc1)C2 (centres undefined) fall at or above the 7 mark?
Output line: not met

Input line: Does the reported pIC50 for CN1C2CCC1C(C(=O)Oc1ccccc1)C(c1ccc(I)cc1)C2 (centres undefined) fall at or above the 7 mark?
Output line: met

Input line: Does the reported pIC50 for CN1C2CCC1C(C(=O)OCc1ccccc1)C(OC(=O)c1ccccc1)C2 (centres undefined) fall at or above the 7 mark?
Output line: not met

Input line: Does the reported pIC50 for Cc1ccc(C2CC3CCC(C2C(=O)Oc2ccccc2C)N3C)cc1 (centres undefined) fall at or above the 7 mark?
Output line: met

Input line: Does the reported pIC50 for CN1C2CCC1C(C(=O)OC/C=C/c1ccccc1)C(OC(=O)c1ccccc1)C2 (centres undefined) fall at or above the 7 mark?
Output line: not met

###

The next entries give measured pIC50 for UniProt Q9WTR4.
One number for each entry, as −log10 of the molar value.

Worked examples follow.
{"molecule": "CN1[C@H]2CC[C@@H]1[C@@H](C(=O)N1CCCC1)[C@@H](c1ccc(Cl)cc1)C2", "pIC50": 5.40}
{"molecule": "CC(C)OC(=O)C1C(c2ccc(Cl)cc2)CC2CCC1N2C (stereo not given)", "pIC50": 6.11}
{"molecule": "CON(C)C(=O)C1C(c2ccc(C)cc2)CC2CCC1N2C (stereo not given)", "pIC50": 6.35}
{"molecule": "CCN(CC)C(=O)C1C(c2ccc(Cl)cc2)CC2CCC1N2C (stereo not given)", "pIC50": 5.26}
{"molecule": "Cc1ccc(C2CC3CCC(C2C(=O)OC2CC2)N3C)cc1 (stereo not given)", "pIC50": 6.19}
{"molecule": "CN1C2CCC1C(C(=O)N1CCC1)C(c1ccc(Cl)cc1)C2 (stereo not given)", "pIC50": 6.00}

Dear reader, for each entry below, please note its pIC50.
1. CN1C2CCC1C(C(=O)Oc1ccc(Cl)cc1)C(c1ccc(Cl)cc1)C2 (stereo not given)
2. Cc1ccc(OC(=O)C2C(c3ccc(C)cc3)CC3CCC2N3C)cc1 (stereo not given)
3. CN1C2CCC1C(C(=O)OCc1ccccc1)C(OC(=O)c1ccccc1)C2 (stereo not given)
4. CC(C)OC(=O)C1C(c2ccc(I)cc2)CC2CCC1N2C (stereo not given)
5. CONC(=O)C1C(c2ccc(Cl)cc2)CC2CCC1N2C (stereo not given)
6. CN(C)C(=O)C1C(OC(=O)c2ccccc2)CC2CCC1N2C (stereo not given)
7. COC(=O)C1C(c2ccc(I)cc2)CC2CCC1N2C (stereo not given)
8. Cc1ccc(C2CC3CCC(C2C(=O)OC(C)C)N3C)cc1 (stereo not given)

Output line:
[5.31, 5.39, 4.68, 6.55, 5.00, 5.13, 7.44, 5.72]

Input line: // query pIC50 value for entry CNC(=O)C1C(c2ccc(Cl)cc2)CC2CCC1N2C (stereo not given)
Output line: 5.80

###

The next entries give measured IC50 for Norepinephrine transporter (Rattus norvegicus).
Answers are plain numbers, in nM.

Worked examples follow.
{"compound": "CN(C(=O)C1C(c2ccc(Cl)cc2)CC2CCC1N2C)c1ccccc1 (stereo not drawn)", "observable": "IC50", "value-reported": 2200}
{"compound": "CCN(CC)C(=O)C1C(c2ccc(C)cc2)CC2CCC1N2C (stereo not drawn)", "observable": "IC50", "value-reported": 6220}
{"compound": "Cc1ccc(C2CC3CCC(C2C(=O)OC2CCCC2)N3C)cc1 (stereo not drawn)", "observable": "IC50", "value-reported": 2630}
{"compound": "COC(=O)C1C(c2ccc(Cl)c(C)c2)CC2CCC1N2C (stereo not drawn)", "observable": "IC50", "value-reported": 36.2}

Dear reader, for each entry below, please note its IC50.
1. COc1ccc(OC(=O)C2C(c3ccc(Cl)cc3)CC3CCC2N3C)cc1 (stereo not drawn)
2. Cc1ccc(C2CC3CCC(C2C(=O)N2CCOCC2)N3C)cc1 (stereo not drawn)

Output line:
1520
23600

###

# assay-target: UniProtKB P31652
# experimental-details: Binding affinity at the Serotonin transporter in rat midbrain by inhibition of 0.5 nM [3H]-paroxetine binding
# Assay type: tissue-based
observable: IC50 (µM)
Numbers only, in µM.

{"compound": "Cc1ccc(C2CC3CCC(C2C(=O)OC2CCC2)N3C)cc1 (centres undefined)", "IC50, µM": 2.02}
{"compound": "CN(C(=O)C1C(c2ccc(Cl)cc2)CC2CCC1N2C)c1ccccc1 (centres undefined)", "IC50, µM": 23.6}
{"compound": "CCOC(=O)C1C(OC(=O)c2ccccc2)CC2CCC1N2C (centres undefined)", "IC50, µM": 5.8}

Shift focus to the following entry.
Input line: // query IC50 value for entry CN1C2CCC1C(C(=O)Oc1ccc(I)cc1)C(c1ccc(Cl)cc1)C2 (centres undefined)
Output line: 1.23

Reference source: ChEMBL document CHEMBL1128444
